# method.description: 3T3 Neutral Red Uptake (NRU) cytotoxicity / phototoxicity, OECD TG 432
# Assay type: cell-based
# study.conditions: mouse, 3T3 cells; absence of UV light; Beiersdorf internal report; read-out: NR50 (IC50 for neural uptake), cytotoxicity in 3T3 NRU
# Source text: From established in vitro guideline studies, potential genotoxicity and toxic effects at a cellular level can be elucidated. This can be complemented with a weight-of-evidence of any observed indicators of cytotoxicity in multiple assays. For instance, the 3T3 Neutral Red Uptake (NRU) assay, which was initially developed for phototoxicity, can provide an indication for local toxicity in the absence of UV light. […]
assay.readout: pIC50
Reminder that pIC50 is minus the log10 of a molar concentration.

Supply pIC50 value. Item: CC(C)C(=O)Nc1nc(-c2ccc(O)cc2O)cs1 [Thiamidol, isobutylamido thiazolyl resorcinol]
3.87

---

# system.under.test: dopamine transport (DAT) (Homo sapiens, UniProt Q01959)
# Sequence (Q01959 whole entry): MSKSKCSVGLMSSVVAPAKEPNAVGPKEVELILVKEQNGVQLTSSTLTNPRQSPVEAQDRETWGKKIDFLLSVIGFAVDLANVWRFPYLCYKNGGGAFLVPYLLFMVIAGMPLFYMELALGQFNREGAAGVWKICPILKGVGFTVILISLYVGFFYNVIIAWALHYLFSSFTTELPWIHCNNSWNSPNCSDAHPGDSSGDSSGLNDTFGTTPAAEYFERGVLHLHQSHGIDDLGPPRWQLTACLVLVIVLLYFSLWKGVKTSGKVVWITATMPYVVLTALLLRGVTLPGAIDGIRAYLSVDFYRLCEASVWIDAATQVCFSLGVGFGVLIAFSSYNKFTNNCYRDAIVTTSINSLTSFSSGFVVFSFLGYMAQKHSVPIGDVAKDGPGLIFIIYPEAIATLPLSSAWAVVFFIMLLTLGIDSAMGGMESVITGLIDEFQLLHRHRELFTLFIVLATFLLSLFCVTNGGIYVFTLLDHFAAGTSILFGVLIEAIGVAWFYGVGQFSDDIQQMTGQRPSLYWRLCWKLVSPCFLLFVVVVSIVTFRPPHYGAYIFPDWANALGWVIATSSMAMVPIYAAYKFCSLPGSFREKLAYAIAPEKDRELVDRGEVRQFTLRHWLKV
assay.readout: IC50

Provide dopamine transport (DAT) (Homo sapiens, UniProt Q01959) IC50 reading for CC(C)C(=O)Nc1nc(-c2ccc(O)cc2O)cs1 .
> 1 µM

---

# system.under.test: norepinephrine transport (NET) (Homo sapiens)
# Sequence (P23975 whole entry): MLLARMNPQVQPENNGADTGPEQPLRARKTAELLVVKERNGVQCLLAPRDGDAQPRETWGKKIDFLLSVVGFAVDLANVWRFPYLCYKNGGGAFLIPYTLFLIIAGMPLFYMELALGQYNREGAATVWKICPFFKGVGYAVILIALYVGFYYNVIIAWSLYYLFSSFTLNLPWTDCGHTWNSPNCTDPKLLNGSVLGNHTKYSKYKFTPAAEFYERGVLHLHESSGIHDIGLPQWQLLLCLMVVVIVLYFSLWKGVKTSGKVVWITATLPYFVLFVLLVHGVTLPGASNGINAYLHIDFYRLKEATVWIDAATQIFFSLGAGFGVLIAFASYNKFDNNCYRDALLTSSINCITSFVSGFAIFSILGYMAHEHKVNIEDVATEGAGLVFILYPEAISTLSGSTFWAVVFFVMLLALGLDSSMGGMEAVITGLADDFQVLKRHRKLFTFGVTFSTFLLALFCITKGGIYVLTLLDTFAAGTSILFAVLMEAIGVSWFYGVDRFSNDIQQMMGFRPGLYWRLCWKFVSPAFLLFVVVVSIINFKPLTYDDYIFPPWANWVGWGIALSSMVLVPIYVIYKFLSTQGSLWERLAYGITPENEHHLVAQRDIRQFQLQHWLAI
assay.readout: pIC50
Reminder that pIC50 is minus the log10 of a molar concentration.

Provide norepinephrine transport (NET) (Homo sapiens) pIC50 reading for CC(C)C(=O)Nc1nc(-c2ccc(O)cc2O)cs1 [Thiamidol, isobutylamido thiazolyl resorcinol] .
6.44

---

# system.under.test: monoamine oxidase A (MOAO) (Homo sapiens)
# Construct: purchased Eurofins Discovery (San Diego, CA, USA), SAFETYscan E/IC50 SELECT service
# Sequence (P21397 1-527): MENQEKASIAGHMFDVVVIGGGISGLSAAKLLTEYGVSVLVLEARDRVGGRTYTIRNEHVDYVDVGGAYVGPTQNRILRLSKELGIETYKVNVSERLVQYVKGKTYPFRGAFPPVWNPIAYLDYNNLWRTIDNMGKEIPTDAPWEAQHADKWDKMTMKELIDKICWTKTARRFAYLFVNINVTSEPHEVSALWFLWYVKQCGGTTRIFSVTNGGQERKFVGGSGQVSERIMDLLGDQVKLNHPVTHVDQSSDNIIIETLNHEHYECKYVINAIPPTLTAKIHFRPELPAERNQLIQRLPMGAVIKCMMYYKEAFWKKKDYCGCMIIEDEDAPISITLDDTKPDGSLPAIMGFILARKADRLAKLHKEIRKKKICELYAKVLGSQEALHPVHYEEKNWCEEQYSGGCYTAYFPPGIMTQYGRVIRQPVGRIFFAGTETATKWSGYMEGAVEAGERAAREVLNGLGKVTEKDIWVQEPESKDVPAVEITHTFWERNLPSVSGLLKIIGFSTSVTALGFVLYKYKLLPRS
# method.description: SAFETYscan monoamine oxidase A enzymatic inhibition
# Assay type: biochemical
# study.conditions: 0.1 µM to 10 µM tested
assay.readout: IC50

Provide monoamine oxidase A (MOAO) (Homo sapiens) IC50 reading for CC(C)C(=O)Nc1nc(-c2ccc(O)cc2O)cs1 .
> 1 µM

---

# system.under.test: COX1 (Homo sapiens, UniProt P23219)
# Sequence (P23219 24-599): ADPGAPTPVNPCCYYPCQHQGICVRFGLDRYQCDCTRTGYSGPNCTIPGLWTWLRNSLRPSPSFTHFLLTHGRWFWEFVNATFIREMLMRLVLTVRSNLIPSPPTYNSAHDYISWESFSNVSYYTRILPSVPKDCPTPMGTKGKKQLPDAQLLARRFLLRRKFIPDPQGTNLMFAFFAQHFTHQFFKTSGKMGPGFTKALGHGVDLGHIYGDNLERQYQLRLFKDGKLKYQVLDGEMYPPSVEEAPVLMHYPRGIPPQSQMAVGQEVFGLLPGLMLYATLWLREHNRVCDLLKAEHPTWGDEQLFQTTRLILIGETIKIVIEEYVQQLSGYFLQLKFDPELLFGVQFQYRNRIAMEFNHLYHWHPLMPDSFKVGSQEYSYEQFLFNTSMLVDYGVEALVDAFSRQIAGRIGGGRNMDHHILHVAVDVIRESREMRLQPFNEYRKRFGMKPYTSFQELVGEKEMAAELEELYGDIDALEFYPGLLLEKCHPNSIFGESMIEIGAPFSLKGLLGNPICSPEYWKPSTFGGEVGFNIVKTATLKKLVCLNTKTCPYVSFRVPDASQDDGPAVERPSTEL
assay.readout: IC50

Supply IC50 value. Item: CC(C)C(=O)Nc1nc(-c2ccc(O)cc2O)cs1
> 1000 nM
